# protocol: Log P by HPLC on reversed phase columns (EEC directive 79/831 Annex V.A8)
# Assay type: physicochemical
# assay_conditions: method [a]; compounds of formula (I), Table 1.1
readout: LogP

CCOC(=O)C1(NC(=O)c2sc(Br)c(Br)c2F)COC1 : 2.77^[a]

CCOC(=O)C1(NC(=O)c2sc(Cl)c(Cl)c2Br)CCC1 has a reported LogP of 4.23^[a]

Recorded LogP (compound COC(=O)C(Cc1c[nH]cn1)NC(=O)c1sc(Cl)c(Br)c1C (stereo not drawn) ): 1.48^[a]

Lookup result for Cc1c(C(=O)NCC#N)sc(Cl)c1Br ; measured LogP: 2.58^[a]

Value of measured LogP for the entry COC(=O)[C@H](CCCNC(=N)N)NC(=O)c1sc(Cl)c(Br)c1C : 1,66^[a]

GET /value?item= CCOC(=O)C(CCSC)NC(=O)c1sc(Br)c(I)c1C (stereo not drawn) &field=LogP returns 4.03^[a]
